Would you kindly list Growth Rate for each of these compounds?
Tested on: Fibroblast
Assay: Incucyte cell viability with human fibroblast; further: unitless GR value; below 1 slowed growth and below 0 cell loss
Assay type: toxicity, cell-based
Conditions: 12 h, 10 µM, compound concentration 10 uM, replicate number 2, timepoint 12 hours
Give bare numbers.

Illustrative cases are given below, each with its answer.
{"Compound": "COc1ccc(S(=O)(=O)N2C(=O)[C@@](c3ccccc3OC)(N3C[C@H](O)C[C@H]3C(=O)N(C)C)c3cc(Cl)ccc32)c(OC)c1", "Test value": 0.24}
{"Compound": "COc1cc2nc(N3CCN(C(=O)c4ccco4)CC3)nc(N)c2cc1OC.Cl [PRAZOSIN HYDROCHLORIDE]", "Test value": 0.92}
{"Compound": "CC[C@H](NC(=O)c1c(C)c(-c2ccccc2)nc2ccccc12)c1ccccc1", "Test value": 0.48}
{"Compound": "CCNC(=O)[C@H]1O[C@@H](n2cnc3c(N)ncnc32)[C@H](O)[C@@H]1O.O", "Test value": 0.87}
{"Compound": "CC[C@H](Nc1ncnc2[nH]cnc12)c1nc2cccc(F)c2c(=O)n1-c1ccccc1", "Test value": 0.48}
{"Compound": "C[N+]1(C)[C@@H]2C[C@@H](OC(=O)C(O)(c3cccs3)c3cccs3)C[C@H]1[C@@H]1O[C@@H]12.O.[Br-] [TIOTROPIUM BROMIDE]", "Test value": 0.99}
{"Compound": "O=c1c2cccn2c2ccccc2n1CCCN1CCC(c2ccc(Cl)cc2)CC1", "Test value": -0.58}
{"Compound": "Cc1cc(Nc2ncc(Cl)c(Nc3ccccc3S(=O)(=O)C(C)C)n2)c(OC(C)C)cc1C1CCNCC1", "Test value": -0.78}
{"Compound": "CN(C)c1ccnc2sc3c(=O)n(N4CCCCCC4)cnc3c12", "Test value": 0.1}
{"Compound": "CNC(=O)[C@H]1O[C@@H](n2cnc3c(NCc4cccc(I)c4)ncnc32)[C@H](O)[C@@H]1O", "Test value": 0.1}

Required: Growth Rate, one value per compound below.
1. CCNC1(C(N)=O)CCN(c2ncnc3c2nc(-c2ccccc2Cl)n3-c2ccc(Cl)cc2)CC1
2. COc1cc(C(=O)N2CC[C@@H](O)[C@@H](N)C2)cc2nc(-c3cc4ccccc4n3CC3CC3)n(C)c12.Cl
3. CC(C)n1cnc2c(Nc3cccc(Cl)c3)nc(N[C@H]3CCCC[C@@H]3N)nc21
4. CN(C(=O)c1ccccc1)c1cc(N(C)c2ccc3c(c2)CCc2ccc(C(=O)NCCN4CCOCC4)cc2C3=O)ccc1F
5. CNC(=O)c1nn(C)c2c1C(C)(C)Cc1cnc(Nc3ccc(N4CCN(C)CC4)cc3)nc1-2
6. N#Cc1c(N)nc(SCc2csc(-c3ccc(Cl)cc3)n2)c(C#N)c1-c1ccc(OCCO)cc1
7. Cl.Cl.NCCc1c[nH]cn1 [HISTAMINE DIHYDROCHLORIDE]

1: 1; 2: -0.18; 3: 0.36; 4: -0.23; 5: -0.07; 6: 0.37; 7: 1

====

Test system: Fibroblast
Test: Incucyte cell viability with human fibroblast; further: unitless GR value; below 1 slowed growth and below 0 cell loss
Assay type: toxicity, cell-based
Conditions: 24 h, 10 µM, compound concentration 10 uM, replicate number 2, timepoint 24 hours
Please assign a class to every record based on measured Growth Rate, with ranges bottom end (below 0.6), midrange (0.6 to below 0.8), top end (0.8 or more)

{"Smiles data": "O=C1[C@H](Cc2ccc(O)cc2)N2C(=O)CCN(C(=O)NCc3ccccc3)[C@H]2CN1Cc1cccc2ccccc12", "Label": "bottom end"}
{"Smiles data": "C=CCNc1ncnc2ccc(Br)cc12", "Label": "midrange"}
{"Smiles data": "CCCCCCCCc1ccc(CCC(N)(CO)CO)cc1", "Label": "bottom end"}

// return the class label for CNC(=O)c1nn(C)c2c1C(C)(C)Cc1cnc(Nc3ccc(N4CCN(C)CC4)cc3)nc1-2
bottom end

Lookup OC[C@H]1O[C@@H](n2cnc3c(NC4CCCC4)ncnc32)[C@H](O)[C@@H]1O
top end

Now give it for CCc1cc2cc(NS(=O)(=O)c3ccc(C#N)cc3)ccc2n(CC)c1=O too.
bottom end
